Quick reference: GI50 of the listed items.
# System: NCI-H23
# Test details: NCI tumour cell line growth inhibition, 48 h
Activity calls are given as the source filed them. Cut-off read from the data, not from the text of the source: active = GI50 up to about 1.1 µM and inactive = higher.

Solved cases below.
CCOP1(=O)C=C(C)C(=C(Cl)Cl)C(C)=C1 (stereo not given) : 15.8 µM (inactive)
CCC(=O)C1(N2CCOCC2)CCN(CCCC(=O)c2ccc(F)cc2)CC1 : > 100 µM (inactive)
COc1ccc2nc3cccc(C(=O)NCCN(C)C)c3nc2c1 : 1.41 µM (inactive)
N=C(c1ccc2ccccc2c1)c1ccccc1Cc1ccccc1 : 41.7 µM (inactive)

Let's switch to this molecule now.
Prompt: I am curious: what GI50 value has been reported for CC1(C)OC(=O)[C@@](C)([C@H](O)c2ccccc2)O1 ?
Completion: > 100 µM (inactive)
